- assayed.system: Bcl-2 protein (Recombinant Human Bcl-2 Protein) (Homo sapiens, UniProt P10415)
- Construct: purchased Novus NBP2-34889
- Sequence (P10415 whole entry): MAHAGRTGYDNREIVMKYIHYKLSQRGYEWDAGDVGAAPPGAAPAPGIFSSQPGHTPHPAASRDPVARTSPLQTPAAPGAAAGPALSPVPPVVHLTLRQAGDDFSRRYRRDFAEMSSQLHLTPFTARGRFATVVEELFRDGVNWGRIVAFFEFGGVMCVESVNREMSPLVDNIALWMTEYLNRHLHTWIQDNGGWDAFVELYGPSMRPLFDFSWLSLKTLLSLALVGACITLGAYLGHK
- protocol: Binding evaluation of mixture library compounds to Bcl-2 using AS-MS (affinity selection mass spectrometry)
- condition.label: AS-MS, mixture of 1200 compounds, Bcl-2; ASMS Ratio(%)=(A−C)/B×100; replicate n = 1

# compound, ASMS ratio (%) n = 1
data = [
    ("CCOc1cccc(-c2ccc(C(=O)N3CCN(c4ccc(C(=O)NCC56CC7CC(CC(C7)C5)C6)nn4)CC3)c3ccccc23)c1 [B1A013-01]", "−1.7"),
    ("CCCNC(=O)c1ccc(N2CCN(Cc3ccccc3-c3cncc(OCC)c3)CC2)nn1 [B1M043-01]", 2.2),
    ("CCOc1cccc(-c2ccc(CN3CCN(c4ccc(C(=O)NCC(F)(F)F)nn4)CC3)cc2F)c1 [B1K077-01]", 2.4),
    ("CCOc1cncc(-c2csc(CN3CCN(c4ccc(C(=O)NCC56CC7CC(CC(C7)C5)C6)nn4)CC3)c2)c1 [B1A094-01]", 6.2),
    ("CCOc1cccc(-c2ccc(CN3CCN(c4ccc(C(=O)NCC56CC7CC(CC(C7)C5)C6)cc4)CC3)c(OC)c2)c1 [B1A053-01]", 13.2),
    ("CCOc1cccc(-c2cc(CN3CCN(c4ccc(C(=O)NCC56CC7CC(CC(C7)C5)C6)cc4)CC3)cc(OCC)c2)c1 [B1A055-01]", "−0.1"),
    ("CCOc1cccc(C#Cc2cc(C(=O)N3CCN(c4ccc(C(=O)NCC56CC7CC(CC(C7)C5)C6)cc4)CC3)cc(C(F)(F)F)c2)c1 [B1A041-01]", "−2.4"),
]
